Measured apparent KD of MS2 coat protein accompanies every entry in the list below.
tested on: MS2 coat protein; assay: apparent KD of MS2 coat protein; higher = weaker reporter binding; settings: Eterna round: R107; input ligand: arginine 13.2 mM
Write down the value, and be sure its unit follows.

ACUAGGCUCGGAAACGAGCCUAGGACAGAAGGAGCGUGGAUUAACACAGGUAGGUCGCUGACAUGAGGAUCACCCAUGUAUUAUU [SSAA #2] :: 24.5 nM

Quick one: apparent KD of MS2 coat protein for GAGUAGAAGACGGCCGCCACUAAACAUGAGGAUCACCCAUGUCGUGAUCCGUUACCUAGAGUAGAUAGGACCGGGUCAUAUAGUC [Exclusion Tryptophan B GF 15] ?
27.5 nM

Note, next up: UCGCUCUGGGUGAGUUCCGGAGAUGUGGAAGGAGCGCUCGAAAGAGCAGGUAGGUCGCCAACGGACAUGAGGAUCACCCAUGUAC [Same State - Arginine A (Freestyle 21)]
33.8 nM

Note, next up: UGACAUUGCUGCGAUACCAGACAUGAGGAUCACCCAUGUACCAAGGUAAGAAAAUAACAUGUCCCUUGGCAGCGCAGCAAUGUCU [MAT - Exclusion Theophlline B - Mod of Eli - D1]
18.9 nM

Note, next up: UGUAACAUGAGGAUCACCCAUGUGAGUGAUACCAGACUAGUGUUGGUCCCUUGGCAGCACGCUGGACGAAUGUGUAGUCUAUGCG [Same State - Theophylline A (Freestyle 18)]
59.5 nM

====

system: MS2 coat protein; test: apparent KD of MS2 coat protein; higher = weaker reporter binding; conditions: Eterna round: R107; input ligand: arginine 13.2 mM
Measured apparent KD of MS2 coat protein accompanies every entry in the list below.
Write the answer as a number in µM, unit excluded.

// known answers, use as guide
UGACAUUGCUCAGAUACCAGACAUGAGGAUCACCCAUGUACCAAGGUACGAAAAUAACAUGUCCCUUGGCAGCUGAGCAAUGUCU [First try 2 #MS2Left #Theo2] :: 0.0167
UACUUGCUGACGGCCGCCACUAGAACAUGAGGAUCACCCAUGUAUGGCGGCCGAAUCCUCAUGACUAGGACCGGGUCAGCAAGAU [(Trp1)-(Ms2)-(T)'-(M)'-(Trp2)_Design2] :: 0.00818
CACAUGAGGAUCACCCAUGUCUGAACUGAAGGAGCGCUAAAUAAGGCAGGUAGGUCGCGGAAUUUUGUGUGCAUAUGCAUAUGGG [9.M] :: 0.0238

Item AGUAUUGGAAACAGUACUAGUGAUCCGGUCCGAGGACCGGUACGGCCGCCACUCGAAUUAAAUAAACAUGAGGAUCACCCAUGUA [Ex Tryptophan A 15] with MS2 coat protein - apparent KD of MS2 coat protein?
0.0181

Note, next up: CAUAUUGUAACUGAUACCAGUGUACUGACAUGAGGAUCACCCAUGUUGGGUUUUGUUGUACACCCUUGGCAGCAGAAUCAAUAUG [AstrosExyTheB#4]
0.0456

Note, next up: UGGUACAUGAGGAUCACCCAUGUUCCAGAUACCAGUGUCCCGGUGCACCCUUGGCAGCUGGUGGUACAUGAGGAUCACCCAUGUG [Exclusion Theophylline A GF13]
0.0179

====

test system: K4 kissing-loop RNA reporter; assay: apparent KD of K4 kissing-loop reporter; higher = weaker reporter binding; conditions: Eterna round: R107; input ligand: FMN 200 uM;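 further: bound reporter read as fluorescence of individual clusters on recovered sequencing chips by microscopy, with normalized cluster intensities fitted with a binding model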
Endpoint: apparent KD of K4 kissing-loop reporter (µM)
Write the answer as a number in µM, unit excluded.

// known answers, use as guide
CUGAUGCUGAUGCGGUGGCCGGUGGUCGUGCGAGGACCGGUACGGCCGCCACUCGCAUGAGUGAUGUUCAUGUGUCGUCGUCGUC [#04 K4 Tryptophan A Exclusion] :: 0.204
AAGUCAUAGGCAGGAUAUGCAUUGUAGUAAGGCAAUAUAUACGUAUAGAGUGAUGUUUUGUACCAGGCAGAAGGGCUACAUCAGU [FMN B Excl V11 (+G)] :: 0.826
UAUUAAUAAUUAUUCUAGUGAUGUUAGAUACGAGGACCGGUACGGCCGCCACUCGCUUAUUGGUUUAUAAAUUUUAUAUUAUUUA [JR_SSTryptoA_Sub017] :: 0.185
GGUGUUGUUUGUGCCGUCUUCCUCGUUCCUCGAGGACCGGUACGGCCGCCACUCGAGUGAUGUUUGGGUAGCGAUCCCUGUUAGU [Bdazzled - #10 Exc. Tryptophan A] :: 0.695
CGCAGUGAUGUUGCGAGUAGCUACAGGGAAGGAGCGCGCUAGUGCGCAGGUAGGUCGCCCACGCAGUGAUGUUGCGUCAUAGGGU [Exclusion Arg A GF8] :: 0.139
UAAUUGCAGUGAUGUUGCAAAUGUCCUGACUAGGAUAUCAGGAAACUGAGAAGGAGUCCCUUCUAUUGCAACAAGAAGGAGGAUA [KL-SSFMN-A14] :: 0.312
CCCAAAAUAUGCAGUGAUGUUGCAACCGAUACCAGUAUCGAAAGAUACCCUUGGCAGCGGAAAACCGCUACGUAAUUUAAAAGGG [Ex Theophylline A K4 17] :: 0.308
UGAUACCAGACGGCCGCCACUAGACCAGUCAAAGACUGGAAGUGAUGUUUGAGGAGUGAUGUUCCUAGGACCGGGUCUGGUAUCU [TrypBX 3 #Palindromic #SwitchBubble #StaticStem] :: 0.0979
AAACGUUGGUCGGAUACCAGUUAGACCGAUAAGGUCAAAACUGGAGUGAUGUUCCCAAAUAACCCUUGGCAGCCGACCGACGAAA [MAT - Same State Theophlline B - Mod of Eli - D12] :: 0.318
AUUUUUUUGUCAGGAUAUUAGUAUGCGUUUGGUUUGUUAGUGAUGUUGAUAUUUUGUUUAUGUAUUUAAGAAGGGAUUUAGCGGU [yyitemullin] :: 0.497

Quick one: apparent KD of K4 kissing-loop reporter for AUUCUAUUGUGAAGGAGCGCGUAUAGUAGUGAUGUUACUAUAAUAAUAGAUAUUUAAUUCUCGCAGGUAGGUCGCACAAUAUAUA [JR_Nu_ExcArginiB_Sub025] ?
0.102

Note, next up: GGCAGUGAUGUUGCCAGUGGCAGAUUGGAAGGAGCGUGGUGAGACACAGGUAGGUCGCUAAUUGAAGUUGCUGUCACUAGAAUGC [whbob_Ex_Arginine_A_2t132]
0.214

Note, next up: GAUCUAUGUCCCGAUACCAGCUCAGAAGCUAGGGAGUGAUGUUCUCGGAGGUUAUCACUGAGCCCUUGGCAGCGGAACGUGACGA [theeternabot_sameState_KL_Theo_B_26]
0.227

Note, next up: AGCAGUGAUGUUGCAUUUAUAAAGACCGAUACCAGUAUCGAUAGAUACCCUUGGCAGCGGAUUUCCGCAACGACUAGGAAACUAG [Ex Theophylline A K4 13]
0.404

Note, next up: ACCGCAUUGGGAUGAUCCCAAUGCGCUGGUCGAGGACCGGUACGGCCGCCACUCGUCCAGUGAUGUUGGACUAGGGCAACUGAAG [Bileesma]
0.519

Note, next up: UAUUUAAUUUUUAAUUUUUAAAUUGCUGAUACCAGAGCCAAUUGGCUCCCUUGGCAGCGGAUCGAGUGAUGUUCGUAUAAUUUAA [AK1 SS Theophylline A]
0.0305

Note, next up: AGUGAUGUGGGAAGGAGCGGUAUAAGAAUUCAGUGAUGUUGAAGUGUUGCAGAAAUAAAAGGCCAGGUAGGUCGCCUAGAUGUUA [KL-XARG B29]
0.347

Note, next up: AAAAUAAACCAGUGAUGUUGGUGUCCAGAUACCAGCGAUAAUAAUCGCCCUUGGCAGCUGCGGACGUACAAAAUAAGUACGUCCU [MatMod 11 - Jieux - Same State - Theophylline A]
0.482

Note, next up: AAAAUAAAUCAGUGAUGUUGGUGUCCAGAUACCAGCGACGAAAGUCGCCCUUGGCAGCUGUGGACGUACAAAAUAAGUACGUCCU [MatMod 22 - Jieux - Same State - Theophylline A]
0.61

Note, next up: AUGUAUGAAUUAGGAUAUCGUUAGCCUUUCAUAUAUAUGAUAAAUGGAUAUGUCGUAGUGAUGUUACGAGAAGGAGUGUGGAGUA [KL-XFMN-B8]
0.0493

Note, next up: "CCCAAGGGCGAACCGGUAUGAUCGACGGAUACCAGAGGCGAAAGCCUCCCUUGGCAGCCGGCUGUAGUGAUGUUACACUGGUUCU"
0.139

Note, next up: UGAGUUUGAGUGAUGUUCAGGCAUUGGUACGAGGAUAUCGAGGAGUUGAGAAGGCGUACUGCUCAACUUUGUAUGAAUACAUACA [FMN A Ex t2b]
0.259
